Reference for the values: the supplement of paper PMC6089552

Test system: A673/TR/shEF
Experiment: cell viability (LOESS-normalised, relative to median of negative controls) (log2 ratio); higher = more viable cells (less compound effect), active = hit call of the paper (over 3 MAD below the median)
Conditions: 2.5 µM; library screen: screen1; EWS-FLI1 expression: low (doxycycline-induced shRNA knockdown); treatment time: 72 h
The campaign covered roughly 3,200 compounds. About 300 (9.4%) showed activity. The list comes from a sample in which actives are over-represented; it also holds close analogues and randomly drawn compounds.
measure-name: cell viability (log2)
The answer should be a number; do not append a unit.

Example results:
| compound | cell viability (log2) |
| --- | --- |
| C=CC(C1=CC(=O)C(OC)=CC1=O)c1ccccc1 (stereo unspecified) | 0.101 |
| CC1C(=O)CC2CC1C2(C)C (stereo unspecified) | 0.103 |
| CC1=C[C@@H]2[C@@H](CC1)[C@](C)(O)CC[C@H]2C(C)C | 0.102 |
| COc1cc(OC)c2c(c1)O[C@H](c1cc(OC)c(OC)c(OC)c1)[C@H](OC(=O)c1cc(OC)c(OC)c(OC)c1)C2 | -0.00627 |
| COC(=O)C[C@H]1C(C)(C)[C@@H](OC(C)=O)[C@@H]2CC3C4CC(=O)O[C@@H](c5ccoc5)[C@]4(C)CCC3[C@@]1(C)C2=O (stereo partly specified) | 0.112 |
| CC(=O)Oc1ccc2c(c1)CC[C@@H]1[C@@H]2CC[C@]2(C)[C@@H](O)CC[C@@H]12 | 0.0723 |
| COc1ccc(OC)c(CN2CCN(Cc3ccccc3F)CC2)c1 | 0.0288 |
| C=C1C(CCl)(CCl)C2(Cl)C(Cl)C(Cl)C1(Cl)C2(Cl)Cl (stereo unspecified) | 0.132 |

Qu. Param item = C=CC(C1=CC(=O)C(OC)=CC1=O)c1ccc(OC)cc1 (stereo unspecified) ; retrieve measured cell viability (log2).
Ans. 0.265

Qu. Here is the next compound: O=C(O)CCC(=O)OCC(NC(=O)C(Cl)Cl)C(O)c1ccc([N+](=O)[O-])cc1 (stereo unspecified)
Ans. 0.177

Qu. Subsequent entry: CCOC(=O)C1=C(C)N=C2SC(C)C(=O)N2C1c1ccc(OC)cc1 (stereo unspecified)
Ans. 0.0438

###

Test system: A673/TR/shEF
Assay: cell viability (LOESS-normalised, relative to median of negative controls) (log2 ratio); higher = more viable cells (less compound effect), active = hit call of the paper (over 3 MAD below the median)
Details: 0.25 µM; library screen: screen1; EWS-FLI1 expression: high (no doxycycline); treatment time: 72 h
In all, about 3,200 compounds went through this assay and about 300 (9.4%) showed activity. The entries come from a sample that favours actives as a whole.
measure-name: cell viability (log2)
Answer as a number with no unit attached.

Answered cases to consult:
| compound | experimental-target | measure-name | observed-value |
| --- | --- | --- | --- |
| Cc1cc(=O)c2c(O)cc(O)c(C)c2o1 | A673/TR/shEF | cell viability (log2) | 0.111 |
| O=C1c2cccc(O)c2C(=O)c2c(O)cccc21 | A673/TR/shEF | cell viability (log2) | 0.127 |
| CC(=O)O[C@H]1CC[C@]2(C)[C@H]3C(=O)C=C4[C@@H]5C[C@@](C)(C(=O)O)CC[C@]5(C)CC[C@@]4(C)[C@]3(C)CC[C@H]2C1(C)C | A673/TR/shEF | cell viability (log2) | 0.0602 |
| CC(=O)O[C@H]1C[C@@H](OC(C)=O)C(C)(C)[C@@H]2C[C@@H](OC(C)=O)[C@]3(C)[C@H](CC[C@@]4(C)[C@H](c5ccoc5)OC(=O)[C@H]5O[C@@]534)[C@@]12C | A673/TR/shEF | cell viability (log2) | -0.0343 |
| CNC[C@H](O)c1ccc(O)c(O)c1 | A673/TR/shEF | cell viability (log2) | 0.106 |
| CC(=O)O[C@H]1C[C@@H](OC(C)=O)C(C)(C)C2CC(=O)[C@]3(C)C(CC[C@@]4(C)[C@H](c5ccoc5)OC(=O)[C@H]5O[C@]543)[C@]21C (stereo partly specified) | A673/TR/shEF | cell viability (log2) | 0.116 |

Qu. Record request: cell viability (log2) value, item "CC(=O)c1c(C(C)=O)c(C)n(-c2cc(C)cc(C)c2)c1C"
Ans. 0.0993

Qu. For "C=C(C)Cn1c(COc2ccc(Cl)cc2Cl)n[nH]c1=S" then?
Ans. 0.0645

Qu. "CN(C)CCN(Cc1ccccc1)c1ccccn1" ?
Ans. 0.0764

Qu. # iterate: "CCc1c(C)c(C#N)c2nc3ccccc3n2c1-n1ccnc1C"
Ans. 0.109

Qu. Another compound to check: "CN1CCN(CC(=O)N2c3ccccc3Sc3ccccc32)CC1"
Ans. 0.172

Qu. Also COc1c(C2COc3cc4c(cc3C2=O)CC(O)C(C)(C)O4)ccc2c1CCC(C)(C)O2 (stereo unspecified) ?
Ans. 0.0719

###

Tested on: A673/TR/shEF
Test: cell viability (LOESS-normalised, relative to median of negative controls) (log2 ratio); higher = more viable cells (less compound effect), active = hit call of the paper (over 3 MAD below the median)
Settings: 2.5 µM; library screen: screen1; EWS-FLI1 expression: high (no doxycycline); treatment time: 72 h
Screen size: about 3,200 compounds; about 300 (9.4%) showed activity. Many of the other results were omitted from the sample, so actives are more common in it than they were.
Each item that follows carries a reported cell viability (log2).
// no unit string in output, number only

Answered cases to consult:
| molecule | experimental-target | observed-value |
| --- | --- | --- |
| COc1ccc(-c2coc3cc(OC)cc(O)c3c2=O)cc1 | A673/TR/shEF | 0.102 |
| COc1nc(N/N=C/c2ccccc2F)nc(N2CCCCC2)n1 | A673/TR/shEF | 0.104 |
| OC[C@H]1O[C@@H](O[C@H]2[C@H](O)[C@@H](O)C(O)O[C@@H]2CO)[C@H](O)[C@@H](O)[C@@H]1O (some centres not stated) | A673/TR/shEF | 0.116 |
| CC(=O)O[C@@H]1C[C@H]2C(C)(C)C(=O)[C@@H]3O[C@@H]3[C@]2(C)[C@H]2CC[C@@]3(C)[C@H](c4ccoc4)OC(=O)[C@H]4O[C@]43[C@@]21C | A673/TR/shEF | 0.155 |
| CN(C)CCCN1c2ccccc2Sc2ccc(Cl)cc21 | A673/TR/shEF | 0.206 |

Qu. Request - read-out cell viability (log2) | tested on A673/TR/shEF | molecule "COc1cc(CN2CCN(Cc3cccc(OC)c3OC)CC2)c([N+](=O)[O-])cc1OC"
Ans. 0.119

Qu. Again, but for "Nc1ncnc2nc[nH]c12"
Ans. 0.0839

###

Measured cell viability (log2) of individual entries
Tested on: A673/TR/shEF
Assay: cell viability (LOESS-normalised, relative to median of negative controls) (log2 ratio); higher = more viable cells (less compound effect), active = hit call of the paper (over 3 MAD below the median)
Settings: 0.25 µM; library screen: screen1; EWS-FLI1 expression: high (no doxycycline); treatment time: 72 h
The campaign covered roughly 3,200 compounds. About 300 (9.4%) showed activity. This is one part of a sample in which actives are shown more often than they occur.
Please reply with the value in numeric form only.

| compound | experimental-target | cell viability (log2) |
| --- | --- | --- |
| CC(C)=CCC[C@@H](C)[C@H]1CC[C@@]2(C)C3=C(CC[C@]12C)[C@@]1(C)CC[C@H](O)C(C)(C)[C@@H]1CC3 | A673/TR/shEF | 0.101 |

Qu. So what's the measured cell viability (log2) for this one? "CN(C)CCCN1c2ccccc2Sc2ccc(Cl)cc21"
Ans. 0.1

Qu. Field entry: "C=C1c2c(Cl)ccc(O)c2C(O)=C2C(=O)[C@]3(O)C(O)=C(C(N)=O)C(=O)[C@@H](N(C)C)[C@@H]3[C@@H](O)[C@H]12.O=C(O)c1cc(S(=O)(=O)O)ccc1O"
Ans. -0.128

Qu. Same question for "O=C(O)c1cc2c(Cl)cc(Cl)cc2[nH]1" please.
Ans. 0.105

Qu. And for CC1(C)C2CC(=O)[C@]3(C)C(CC[C@@]4(C)[C@H](C(=O)O)OC(=O)C5OC543)[C@@]2(C)[C@@H](O)C[C@H]1O (stereo partly specified) ?
Ans. 0.0536

Qu. And the next one, "O=C(NC(=S)Nc1ncc(Br)cc1Br)c1cccs1" ?
Ans. 0.112

###

System: A673/TR/shEF
Assay: cell viability (LOESS-normalised, relative to median of negative controls) (log2 ratio); higher = more viable cells (less compound effect), active = hit call of the paper (over 3 MAD below the median)
Settings: 2.8 µM; library screen: screen3; EWS-FLI1 expression: low (doxycycline-induced shRNA knockdown); treatment time: 72 h
The campaign covered roughly 3,200 compounds. About 300 (9.4%) showed activity. The sample holds actives, similar compounds and a random draw of the others, so the mix is not that of the screen.
Pick one and only one: active, inactive

# count of solved cases: 5
| compound | assigned-category |
| --- | --- |
| CO[C@H]1C[C@@H]2CC[C@@H](C)[C@@](O)(O2)C(=O)C(=O)N2CCCC[C@H]2C(=O)O[C@H]([C@H](C)C[C@@H]2CC[C@@H](OC(=O)C(C)(CO)CO)[C@H](OC)C2)CC(=O)[C@H](C)/C=C(\C)[C@@H](O)[C@@H](OC)C(=O)[C@H](C)C[C@H](C)/C=C/C=C/C=C/1C | active |
| COC(=O)Nc1nc2ccc(Sc3ccccc3)cc2[nH]1 | inactive |
| COc1cc([C@@H]2c3cc4c(cc3[C@@H](O[C@@H]3O[C@@H]5CO[C@@H](c6cccs6)O[C@H]5[C@H](O)[C@H]3O)[C@H]3COC(=O)[C@H]23)OCO4)cc(OC)c1O | active |
| CCCCCCCCCCC[C@@H](C[C@@H]1OC(=O)[C@H]1CCCCCC)OC(=O)[C@H](CC(C)C)NC=O | inactive |
| COc1ccc(-c2nc3ccc(C4=NNC(=O)CC4C)cc3[nH]2)cc1 (configuration not stated) | inactive |

Qu. State the result this test recorded for "Nc1nc(Cl)nc2c1ncn2[C@H]1C[C@H](O)[C@@H](CO)O1" .
Ans. inactive

Qu. Entry to check: "CN(C)CCCN1c2ccccc2Sc2ccc(Cl)cc21"
Ans. inactive

Qu. Thanks! And "COc1ncc(-c2ccc3nccc(-c4ccnnc4)c3c2)cc1NS(=O)(=O)c1ccc(F)cc1F" ?
Ans. active

Qu. What do we get for "CO[C@@H](C(=O)N1Cc2[nH]nc(NC(=O)c3ccc(N4CCN(C)CC4)cc3)c2C1)c1ccccc1" ?
Ans. active

Qu. And for "CCCCCCCCc1ccc(CCC(N)(CO)CO)cc1" ?
Ans. inactive

Qu. Next compound up: "COC(=O)Nc1ccc(-c2nc(N3CCOCC3)c3cnn(C4CCN(Cc5cccnc5)CC4)c3n2)cc1"
Ans. active

Qu. Another compound to look at: "CNC(=O)c1c(F)cccc1Nc1nc(Nc2cc3c(cc2OC)CCN3C(=O)CN(C)C)nc2[nH]ccc12"
Ans. active
